Each entry below lists one item and its recorded pKd value.
Biological target: T1, cynomolgus monkey VTCN1 protein (cynomolgus monkey, UniProt A0A2K5U6P5 25-259)
T1 construct: The construct and its tag are not described; also called cyno VTCN1
T1 sequence: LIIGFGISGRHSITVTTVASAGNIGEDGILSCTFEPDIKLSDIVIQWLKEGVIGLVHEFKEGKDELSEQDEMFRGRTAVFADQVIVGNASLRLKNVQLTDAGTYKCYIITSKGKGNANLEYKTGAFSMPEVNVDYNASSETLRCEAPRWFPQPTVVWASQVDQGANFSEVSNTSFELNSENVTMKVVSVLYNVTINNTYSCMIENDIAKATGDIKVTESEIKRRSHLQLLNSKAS
Assay: BLI (OCTET), cynomolgus monkey VTCN1 protein
Bear in mind: pKd is minus log10 of a mol/L concentration; give just that figure.

Previously resolved entries follow.
binder	endpointResult
16H12_60B4 (antibody, V domains shown, Fully human antibody) VH: QVQVVQSGAEVKKPGSSVKVSCKASGDTFSNYAISWVRQAPGQGLEWMGGIIPIFGITNYAQKFQGRVTIIADKSTRTAYMELSSLRSEDTAVYYCSRGGPYFDYWGQGILVTVSS VL: EIVMTQSPATLSVSPGERATLSCRASQSVSSNLAWYQQKPGQAPRLLIYGASTRATGIPARFSGSGSGTEFTLTISSLQSEDFAVYYCQQYKKWPFTFGPGTKVDIK	9.00
4C7_63A1 (antibody, V domains shown, Fully human antibody) VH: QVQLQESGPGLVKPSGTLSLTCAVSGGSISSSNWWSWVRQPPGKGLEAIGEIYHSGNTNYNPSLKSRVTISVDKSKNQFSLKLSSVTAADTAIYYCARDGYSSGWYWGYFDYWGQGTLVTVSS VL: EIVMTQSPATLSVSPGERATLSCRASQSVNSNLAWYQQKPGQAPWLLIYGASTRATGIPARFSGSGSGTEFTLTISSLQSEDFAVYYCQQYNHWPYTFGQGTKLEIK	7.33
12B5_44B1 (antibody, V domains shown, Fully human antibody) VH: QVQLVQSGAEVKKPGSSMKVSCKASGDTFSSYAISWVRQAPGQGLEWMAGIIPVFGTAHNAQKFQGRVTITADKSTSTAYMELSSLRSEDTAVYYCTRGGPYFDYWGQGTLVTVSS VL: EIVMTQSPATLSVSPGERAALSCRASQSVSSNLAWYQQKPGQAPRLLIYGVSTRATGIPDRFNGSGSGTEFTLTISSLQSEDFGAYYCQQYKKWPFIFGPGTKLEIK	8.70

// moving on: another record for pKd
Recorded pKd of 14D6_60B5 (antibody, V domains shown, Fully human antibody) VH: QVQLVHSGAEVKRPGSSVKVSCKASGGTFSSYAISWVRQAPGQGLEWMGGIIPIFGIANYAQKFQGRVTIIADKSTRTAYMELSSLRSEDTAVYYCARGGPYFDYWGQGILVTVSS VL: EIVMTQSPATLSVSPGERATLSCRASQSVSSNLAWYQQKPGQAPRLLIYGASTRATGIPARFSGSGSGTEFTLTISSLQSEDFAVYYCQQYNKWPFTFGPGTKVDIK , please.
8.30
